Provide the reported pEC50 of each item.
System: Human alphaherpesvirus 3
procedure summary: Antiviral activity evaluated against thymidine kinase competent(TK+) Varicella Zoster virus (07)
Assay type: functional, organism-based
pEC50: −log10 of the molar value.

Indicate its recorded pEC50; the compound in question is O=c1nc2oc(CCCCCCCCCOCC3CCCC3)cc2cn1[C@H]1C[C@H](O)[C@@H](CO)O1
< 5.30

Indicate its recorded pEC50; the compound in question is O=c1nc2oc(CCCCCCCCCOCCCCCl)cc2cn1[C@H]1C[C@H](O)[C@@H](CO)O1
≤ 3.70

Indicate its recorded pEC50; the compound in question is CCCCOCCCCCCCCCc1cc2cn([C@H]3C[C@H](O)[C@@H](CO)O3)c(=O)nc2o1
< 5.30

Indicate its recorded pEC50; the compound in question is CC(C)CCOCCCCCCCCCc1cc2cn([C@H]3C[C@H](O)[C@@H](CO)O3)c(=O)nc2o1
< 5.30

Indicate its recorded pEC50; the compound in question is CCCCCOCCCCCCCCCc1cc2cn([C@H]3C[C@H](O)[C@@H](CO)O3)c(=O)nc2o1
< 5.30
